Provenance of the data: PubChem BioAssay (NCI)

# Tested on: OVCAR-8 ovarian
# procedure.text: NCI tumour cell line growth inhibition, 48 h
Hi there, I'd appreciate the recorded TGI for every entry that follows.

INSERT INTO assay_data (compound, measured_parameter, result) VALUES
  ('O=Nc1ccc(O)c2ncccc12', 'TGI', '> 34.1 µM'),
  ('CN(C)CCN1C(=O)c2cccc3c(N)ccc(c23)C1=O', 'TGI', '> 25 µM'),
  ('COc1cccc2c1C(=O)c1c(O)c3c(c(O)c1C2=O)C[C@@](O)(C(=O)CO)C[C@@H]3OC1CC(OC(C)=O)C(OC(C)=O)C(C)O1 (some centres undefined)', 'TGI', '> 58.1 µM');

Query compound follows.
[ask] What does the data say about its TGI? Entry: CCOc1ncn(-c2ccc(NC(=S)Nc3cnccn3)cc2)n1
[reply] > 10 µM
